B1: IKZF1 (parent)
chain: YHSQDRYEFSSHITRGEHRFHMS

Variants of: B1
assay protocol: protein stability index of a GFP-peptide fusion (GPS, HEK-293T) (PSI 1-6); higher = more stable;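 note: lentivirally expressed fusions sorted by FACS into six bins by GFP to DsRed ratio, PSI derived from sequencing read proportions per bin multiplied by bin number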
condition details: c terminus: native
Please enter yes where protein stability index is greater than or equal to 2, and no where it is lower.

Example results:
[
  {
    "mutation spec": "H12M",
    "answer label": "yes"
  },
  {
    "mutation spec": "S11R",
    "answer label": "yes"
  },
  {
    "mutation spec": "R6W",
    "answer label": "yes"
  },
  {
    "mutation spec": "H21D",
    "answer label": "yes"
  },
  {
    "mutation spec": "Y1L",
    "answer label": "yes"
  }
]

Quick check, protein stability index >= 2? `G16F`
no

Quick check, protein stability index >= 2? `H21C`
no

Quick check, protein stability index >= 2? `Y1I`
yes

Quick check, protein stability index >= 2? `H2G`
yes

Quick check, protein stability index >= 2? `S23Q`
yes

Quick check, protein stability index >= 2? `E8D`
yes

Quick check, protein stability index >= 2? `S23N`
yes

Quick check, protein stability index >= 2? `R6K`
yes

Quick check, protein stability index >= 2? `H2M`
yes

Quick check, protein stability index >= 2? `G16R`
yes

Quick check, protein stability index >= 2? `M22T`
yes

Quick check, protein stability index >= 2? `H18G`
no

Quick check, protein stability index >= 2? `D5M`
yes

Quick check, protein stability index >= 2? `H18A`
no
